- test details: Cytotoxicity against African green monkey Vero cells assessed as reduction in cell survival incubated for 10 days by neutral red dye based colorimetric analysis
- measurement setup: chlorocebus sabaeus, Vero cells; time 10 day
property: CC50 at 240 h

1) CC1(C)[C@H]2CC[C@]1(C)[C@H](OC(=O)CCN1CCCCC1)C2 :: 443 µM
2) CCN1CCN(CCC(=O)O[C@@H]2C[C@@H]3CC[C@@]2(C)C3(C)C)CC1 :: 19.2 µM
3) CC1(C)[C@H]2CC[C@]1(C)[C@H](OC(=O)CCN1CCOCC1)C2 :: 122 µM
4) CN1CCN(CCC(=O)O[C@@H]2C[C@@H]3CC[C@@]2(C)C3(C)C)CC1 :: 61.4 µM

The reported measurements were obtained from ChEMBL document CHEMBL4706564.
